target: CaHse1; experiment: SPOT peptide array binding signal intensity (averaged, normalized) (arbitrary units (background-subtracted, floor 0; scale differs between SH3 domains)); higher = stronger binding of the SH3 domain to the peptide
The label depends only on SPOT peptide array binding signal intensity: label 1 if it is at least 20, label 0 if it is smaller.

Example entries and their recorded answers appear below.
1) GSKSGPPPRPKKPST ... label 0
2) FPPKRKPLLRPQRSD ... label 1
3) VGFRLALKFPSRITG ... label 1
4) VPPPMQPPPIESSNL ... label 1
5) NRLRKRLNLPSEISI ... label 1

Would you say "RKLRTVPGVPLIHLT" shows SPOT peptide array binding signal intensity at minimum 20?
label 0

Please check the record "HPRFVSPRIPSRIVK" and state if its SPOT peptide array binding signal intensity is at or above 20.
label 1
